- Assay Notes: Inhibition of Bacillus stearothermophilus alpha-glucosidase type 4
- Design: species or system Geobacillus stearothermophilus
Can you tell me IC50 for the items I'm about to list?
Give bare numbers, in µM.

C[C@@H]1O[C@@H](OC[C@H]2O[C@@H](Oc3c(-c4ccc(O)cc4)oc4cc(O)cc(O)c4c3=O)[C@H](O)[C@@H](O)[C@@H]2O)[C@H](O)[C@H](O)[C@H]1O [NICOTIFLOROSIDE] : 110

Quick request: IC50 for each listed item, please.
1. O=C(CCc1ccc(O)cc1)c1c(O)cc(O)cc1O[C@@H]1O[C@H](CO)[C@@H](O)[C@H](O)[C@H]1O
2. COCC1=CCc2cc(OC)ccc2-c2cc(O[C@@H]3O[C@H](CO)[C@@H](O)[C@H](O)[C@H]3O)c(OC)cc21 [SUBAVENOSIDE E]
3. COCC1=CCc2cc(OC)ccc2-c2cc(O)c(OC)cc21
4. C[C@H]1O[C@H](O[C@H]2[C@H](O)[C@@H](O)[C@@H](O[C@H]3[C@H](O)[C@@H](O)C(O)O[C@@H]3CO)O[C@@H]2CO)[C@H](O)[C@@H](O)[C@@H]1N[C@H]1C=C(CO)[C@@H](O)[C@H](O)[C@H]1O (stereo partly specified)

Reply:
1. 60.5
2. 19
3. 118
4. 0.034

Task item: // IC50 lookup, key: "O=C1C[C@H](c2ccc(O)cc2)Oc2cc(O)cc(O[C@@H]3O[C@H](CO)[C@@H](O)[C@H](O)[C@H]3O)c21"
Reply: 39.8

----------
- Assay Notes: Inhibition of Bacillus stearothermophilus alpha-glucosidase type 4
- Parameters: species or system Geobacillus stearothermophilus
pIC50: −log10 of the molar value.
Please note: MET applies when pIC50 is 4 or greater, and NOT MET applies otherwise.

COc1cc2c(cc1O)-c1ccccc1CC=C2CO[C@@H]1O[C@H](CO)[C@@H](O)[C@H](O)[C@H]1O [SUBAVENOSIDE A] : NOT MET
O=C1C[C@@H](c2ccc(O)cc2)Oc2cc(O)cc(O[C@@H]3O[C@H](CO)[C@@H](O)[C@H](O)[C@H]3O)c21 : MET
COc1cc2c(cc1O[C@@H]1O[C@H](CO)[C@@H](O)[C@H](O)[C@H]1O)-c1ccccc1CC=C2CO [SUBAVENOSIDE D] : MET
CC/C=C/CCO[C@@H]1O[C@H](CO)[C@@H](O)[C@H](O)[C@H]1O : NOT MET
CCCC(=O)c1c(O)cc(O)cc1O[C@@H]1O[C@H](CO)[C@@H](O)[C@H](O)[C@H]1O : NOT MET

// next entry
Task item: Please tell me: is the compound "C=CCc1ccc(O[C@@H]2O[C@H](CO[C@@H]3OC[C@](O)(CO)[C@H]3O)[C@@H](O)[C@H](O)[C@H]2O)cc1" at or over 4 in terms of pIC50?
Reply: NOT MET
